test: cells; conditions: Homo sapiens, MCF-10A, read-out: MCF10A IC50

>  <Compound>
N#Cc1cc(NC(=O)N2CC(O)(C(F)(F)F)c3ccccc32)c2c(c1)C(=O)NC2c1cc(F)ccc1Cl (stereo not shown)

>  <IC50>
< 1000 nM

$$$$
>  <Compound>
O=C(Nc1cc(N2CCOCC2)cc2c1C(c1cc(F)ccc1Cl)NC2=O)c1cc(F)cc(C(F)(F)F)c1 (stereo not shown)

>  <IC50>
< 1000 nM

$$$$
>  <Compound>
O=C(Nc1cc(I)cc2c1C(c1cc(F)ccc1Cl)NC2=O)c1cc(F)cc(C(F)(F)F)c1 (stereo not shown)

>  <IC50>
< 1000 nM

$$$$
>  <Compound>
CC(C)(O)c1cc(NC(=O)N2C[C@@H](O)c3ccccc32)c2c(c1)C(=O)N[C@H]2c1cc(F)ccc1Cl (single isomer, unassigned)

>  <IC50>
1000 to 5000 nM

$$$$
>  <Compound>
Cc1cnccc1-c1cc(NC(=O)c2cc(F)cc(C(F)(F)F)c2)c2c(c1)C(=O)N[C@H]2c1cc(F)ccc1Cl (stereo in doubt)

>  <IC50>
< 1000 nM

$$$$
>  <Compound>
O=C1N[C@H](c2cc(F)ccc2Cl)c2c(NC(=O)N3C[C@@](O)(C(F)(F)F)c4cc(F)ccc43)cc(N3CCCC3=O)cc21 (single isomer, unassigned)

>  <IC50>
< 1000 nM

$$$$
>  <Compound>
C[C@@]1(C(=O)Nc2cc(Br)cc3c2[C@H](c2cc(F)ccc2Cl)NC3=O)CCC[C@H](C(F)(F)F)C1 (single isomer, unassigned)

>  <IC50>
1000 to 5000 nM

$$$$
>  <Compound>
Cn1cnnc1Nc1cc(NC(=O)c2cc(F)cc(C(F)(F)F)c2)c2c(c1)C(=O)NC2c1cc(F)ccc1Cl (stereo not shown)

>  <IC50>
1000 to 5000 nM

$$$$
>  <Compound>
Cc1nc2ccc(-c3cc(NC(=O)c4cc(F)cc(C(F)(F)F)c4)c4c(c3)C(=O)NC4c3cc(F)ccc3Cl)cn2n1 (stereo not shown)

>  <IC50>
< 1000 nM

$$$$
>  <Compound>
O=C(Nc1cc(Br)cc2c1C(c1cc(F)ccc1Cl)NC2=O)c1cc(F)cc(C(F)(F)F)c1 (stereo not shown)

>  <IC50>
1000 to 5000 nM

$$$$
>  <Compound>
Cn1nccc1Nc1cc(NC(=O)c2cc(F)cc(C(F)(F)F)c2)c2c(c1)C(=O)NC2c1cc(F)ccc1Cl (stereo not shown)

>  <IC50>
< 1000 nM

$$$$
>  <Compound>
O=C(Nc1cc(-c2cn3ncnc3cn2)cc2c1C(c1cc(F)ccc1C(F)F)NC2=O)c1cc(F)cc(Cl)c1 (stereo not shown)

>  <IC50>
1000 to 5000 nM

$$$$
>  <Compound>
O=C1NC(c2cc(F)ccc2Cl)c2c(Nc3nccc4c(Cl)cc(F)cc34)cc(Br)cc21 (stereo not shown)

>  <IC50>
< 1000 nM

$$$$
